Tested on: azole resistant C. albicans MTCC 227
Experiment summary: Checkerboard assay on azole resistant C. albicans MTCC 227
Format: cell-based, Candida albicans
Condition details: antifungal in combination with propylene glycol monocaprylate
FIC index values by entry

Below, 4 molecules whose answers are already recorded.
# Molecule, Measurement target, FIC index
rows = [
    ("Clc1ccccc1C(c1ccccc1)(c1ccccc1)n1ccnc1 [Clotrimazole]", "azole resistant C. albicans MTCC 227", 0.312),
    ("CC(=O)N1CCN(c2ccc(OCC3COC(Cn4ccnc4)(c4ccc(Cl)cc4Cl)O3)cc2)CC1 (centres unmarked) [Ketoconazole]", "azole resistant C. albicans MTCC 227", 0.187),
    ("N#C/C(=C1/SC[C@@H](c2ccc(Cl)cc2Cl)S1)n1ccnc1 [Luliconazole]", "azole resistant C. albicans MTCC 227", 0.187),
    ("C=C1CCN([C@H](C)[C@](O)(Cn2cncn2)c2ccc(F)cc2F)CC1 [Efinaconazole]", "azole resistant C. albicans MTCC 227", 0.281),
]

// switching to the query molecule
[ask] Note down FIC index recorded for CCC(C)n1ncn(-c2ccc(N3CCN(c4ccc(OCC5COC(Cn6cncn6)(c6ccc(Cl)cc6Cl)O5)cc4)CC3)cc2)c1=O (centres unmarked) [Itraconazole]
[reply] 0.064
